system: RPMI-8226 leukemia; test: NCI-60 one-dose screen, 48 h (100 = growth as untreated, 0 = no growth, -100 = all killed); settings: 10 µM unless noted
Compounds without any hit were thinned out: in the full panel of roughly 83,000, 20% have a hit. Calls of active or inactive are those of the source. The calls were made as follows: active = growth percent below 10; inactive = the rest.
MEASURE_NAME: growth

In [3]: df
Out[3]:
                                    compound  measure_name                     result
 0                         C=COC(=O)C(C)(C)C        growth           99.2% (inactive)
 1          COc1cc(CC#N)c([N+](=O)[O-])cc1OC        growth            109% (inactive)
 2                O=C(NC1CCCCC1)c1ccc(Cl)cc1        growth            105% (inactive)
 3                              CCOC(C=O)OCC        growth           99.1% (inactive)
 4  CC(O)C(F)(F)C(F)(F)C(F)(F)F (centres undefined)        growth            128% (inactive)
 5       COC(=O)c1ccccc1C(=O)c1c(C)cc(C)cc1C        growth           93.5% (inactive)
 6  O=C(NCc1ccco1)Nc1cccc2c(NC(=O)NCc3ccco3)cccc12        growth  33.9% [100 µM] (inactive)
 7  Cc1c(-c2ccc(C3CCCCC3)cc2)nc2ccc(F)cc2c1C(=O)O        growth           56.1% (inactive)
 8  C=CC1=NC(C)(C)CC(C)O1 (centres undefined)        growth            105% (inactive)
 9                    COC(=O)C1=C(C)C(=O)CC1        growth            110% (inactive)
10       O=C(Nc1c(Cl)cc(Cl)cc1Cl)ON=C1CCCCC1        growth            105% (inactive)
11         CCOP(=O)(NC(c1ccccc1)c1ccccc1)OCC        growth            104% (inactive)
12              Cn1c2ccccc2c2nnc(NCCCCO)nc21        growth           69.6% (inactive)
13                O=C(O)c1ccc(OCc2ccccc2)cc1        growth           97.5% (inactive)
